- Tested on: SK-MEL-5 melanoma
- TEST_PROTOCOL: NCI tumour cell line growth inhibition, 48 h
# Lookup of reported TGI keyed by entry

# COMPOUND, SIGN, TGI [µM]
rows = [
    ("C[C@]1(CO)CCC[C@@]2(C)C1CC[C@H]1CC3C[C@]12CC[C@]3(C)O (stereo not given in full)", "=", 35.2),
    ("CN(C)c1ccc(Nc2cc(-c3cccc(OC(F)(F)F)c3)nc3ccc(N4CCCC4)cc23)cc1", "=", 3.3),
    ("Cc1cc(Cc2c(F)c(F)c(C(c3cc(C)no3)c3c(F)c(F)c(F)c(F)c3F)c(F)c2F)on1 (stereo not given)", ">", 100),
    ("COc1ccc(OC)c(/C=C(/C)[N+](=O)[O-])c1", "=", 13),
    ("O=C(O)/C(=C/C=C/c1ccccc1)c1csc(-c2nc(/C(=C\\C=C\\c3ccccc3)C(=O)O)cs2)n1", "=", 86.3),
    ("CCOC(=O)C(=Cc1ccc(Oc2ccccc2)cc1)C(=O)OCC", "=", 3.9),
    ("O=C(O)c1cn2c3c(cc(N4CCN(CCO)CC4)cc3c1=O)SCC2", ">", 100),
    ("O=c1[nH]c(=O)n(C2CC(O)C(CO)O2)cc1C1=NC1 (stereo not given)", ">", 100),
    ("CC(=O)OCC1OC(SC2OC(COC(C)=O)C(OC(C)=O)C(OC(C)=O)C2OC(C)=O)C(OC(C)=O)C(OC(C)=O)C1OC(C)=O (stereo not given)", ">", 100),
    ("O=[N+]([O-])c1c(Br)sc(Br)c1[N+](=O)[O-]", "=", 17.2),
]

----------
# Lookup of reported GI50 keyed by entry
- Tested on: SF-539 CNS
- TEST_PROTOCOL: NCI tumour cell line growth inhibition, 48 h

# MOLECULE, GI50
rows = [
    ("CN1c2ccccc2C(C)(C)C12C=Cc1cc(O)ccc1O2 (stereo not given)", "1.94 µM"),
    ("Nc1nc(-c2ccc(F)cc2)c(-c2ccc3ncccc3n2)s1", "14.4 µM"),
    ("Cc1cc(N(CCNc2ccnc3cc(Cl)ccc23)Cc2ccco2)nc(Cl)n1", "1.82 µM"),
    ("CC(=O)O[C@]1(C(C)=O)CC[C@H]2[C@@H]3C=C(C)C4=CC(=O)CC[C@]4(C)[C@H]3CC[C@@]21C", "> 61.4 µM"),
    ("O=C1/C(=C/c2ccc(Cl)cc2)N=C(c2ccccc2)N1CCc1cccs1", "48.2 µM"),
    ("Cc1cc(Cl)ccc1NC(=O)c1cc2ccccc2cc1O", "0.783 µM"),
    ("O=C(/C=C/c1cc([N+](=O)[O-])ccc1Cl)c1ccccc1", "16.6 µM"),
    ("CCN(C(=O)c1cc(F)ccc1Oc1cncnc1N1CC2(CCN(CC3CCC(NS(=O)(=O)CC)CC3)CC2)C1)C(C)C (stereo not given)", "> 100 µM"),
    ("COc1ccc2c(c1)C(=O)c1c-2c(Nc2ccc(Cl)cc2)nc2ccccc12", "8.76 µM"),
    ("COc1ccc(Nc2c3ccccc3nc3ccccc23)cc1", "2.95 µM"),
]

----------
# Lookup of reported TGI keyed by entry
- Test system: OVCAR-4 ovarian
- TEST_PROTOCOL: NCI tumour cell line growth inhibition, 48 h

# COMPOUND, SIGN, TGI [µM]
rows = [
    ("N#Cc1c(N)nc(N2CCOCC2)c(C#N)c1-c1cccnc1", ">", 100),
    ("CCOC(=O)C(C(=S)Nc1ccccc1)c1nn2c(=O)cc(C)nc2s1 (stereo not given)", ">", 100),
    ("CC(C)[Si](OC1=CCC[C@H]2NC(=O)[C@@H](Cc3ccccc3)[C@@]12C)(C(C)C)C(C)C", "=", 19.7),
    ("Cc1[nH]c(=O)nc(N(CCO)/N=C/c2ccccc2Cl)c1C(=O)Nc1cc(Cl)cc(Cl)c1", "=", 93),
    ("Fc1ccccc1C1CC(c2ccc3ccccc3c2)=Nc2ccccc2S1 (stereo not given)", ">", 100),
    ("O=C(O)c1cccc(N=Nc2c(S(=O)(=O)O)ccc3c2C(=O)c2ccccc2C3=O)c1O", ">", 100),
    ("COc1ccc(/C=C2\\N=C(c3ccccc3)N(N=C3NC(=O)CC(=O)N3)C2=O)cc1", ">", 100),
    ("O=C1/C(=C/c2ccccc2O)N=C(c2ccccc2)N1c1nc2ccccc2s1", ">", 100),
    ("COc1ccc(/C=C2\\CCC(CNc3ccc(OC)cc3)C2=O)cc1 (stereo not given)", "=", 45.7),
    ("CN1c2ccccc2C(C)(C)C12C=Cc1cc(O)ccc1O2 (stereo not given)", "=", 17.6),
]

The measured values listed here are drawn from PubChem BioAssay (NCI).
